Target Or Test System: T1, Full-length human NT5E (recombinant, in-house) (human, UniProt P21589 27-549)
T1 construct: also called hNT5E; hNT5EWT
T1 sequence: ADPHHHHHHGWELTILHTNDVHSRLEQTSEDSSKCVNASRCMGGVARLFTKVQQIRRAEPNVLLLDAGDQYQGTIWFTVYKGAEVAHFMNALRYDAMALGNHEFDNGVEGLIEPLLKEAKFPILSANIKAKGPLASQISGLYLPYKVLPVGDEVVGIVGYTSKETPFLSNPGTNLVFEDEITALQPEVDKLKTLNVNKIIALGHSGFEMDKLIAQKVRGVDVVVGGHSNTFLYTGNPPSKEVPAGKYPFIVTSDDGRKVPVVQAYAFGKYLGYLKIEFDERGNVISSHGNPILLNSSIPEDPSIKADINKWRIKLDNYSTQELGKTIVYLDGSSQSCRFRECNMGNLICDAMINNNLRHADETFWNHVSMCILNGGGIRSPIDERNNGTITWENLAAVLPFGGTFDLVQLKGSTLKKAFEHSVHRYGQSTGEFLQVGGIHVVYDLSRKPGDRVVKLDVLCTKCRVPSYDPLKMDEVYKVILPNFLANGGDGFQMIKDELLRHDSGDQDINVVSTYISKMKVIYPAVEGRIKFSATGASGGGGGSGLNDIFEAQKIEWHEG
Procedure Details: SPR, His-captured NT5E, 1 mM ATP
Reported Metric: kon (M⁻¹ s⁻¹)
State just the number; it will be interpreted in M⁻¹ s⁻¹.

Q. Request the reported kon associated with 1789 AM32 Fab (Fab, V domains shown, also called Fab32) VH: EVQLVESGGGLVQPGGSLRLSCAASGFNVSYSSIHWVRQAPGKGLEWVARIRGNEGDTYYADSVKGRFTISADTSKNTAYLQMNSLRAEDTAVYYCARNYWGWYPFYYFAFDYWGQGTLVTV VL: DIQMTQSPSSLSASVGDRVTITCRASQSVSSAVAWYQQKPGKAPKLLIYSASSLYSGVPSRFSGSRSGTDFTLTISSLQPEDFATYYCQQGWDYPITFGQGTKVEIKR
A. 270000

Q. Request the reported kon associated with 1789 AM39 Fab (Fab, V domains shown) VH: EVQLVESGGGLVQPGGSLRLSCAASGFNVSYSSIHWVRQAPGKGLEWVASIRGAGSDTRYADSVKGRFTISADTSKNTAYLQMNSLRAEDTAVYYCARNYWGWYPFYYFAFDYWGQGTLVTV VL: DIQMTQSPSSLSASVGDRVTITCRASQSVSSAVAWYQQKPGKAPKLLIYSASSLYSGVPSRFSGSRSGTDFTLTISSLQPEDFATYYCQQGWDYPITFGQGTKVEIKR
A. 490000

Q. Request the reported kon associated with 1789 AM42 Fab (Fab, V domains shown) VH: EVQLVESGGGLVQPGGSLRLSCAASGFNVSYSSIHWVRQAPGKGLEWVAKIRGGHQDTHYADSVKGRFTISADTSKNTAYLQMNSLRAEDTAVYYCARNYWGWYPFYYFAFDYWGQGTLVTV VL: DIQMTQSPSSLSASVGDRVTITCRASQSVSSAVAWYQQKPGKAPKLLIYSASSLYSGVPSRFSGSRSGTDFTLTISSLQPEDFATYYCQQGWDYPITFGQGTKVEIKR
A. 320000

Q. Request the reported kon associated with 1789 Fab (Fab, V domains shown) VH: EVQLVESGGGLVQPGGSLRLSCAASGFNVSYSSIHWVRQAPGKGLEWVASISSSSGYTYYADSVKGRFTISADTSKNTAYLQMNSLRAEDTAVYYCARNYWGWYPFYYFAFDYWGQGTLVTV VL: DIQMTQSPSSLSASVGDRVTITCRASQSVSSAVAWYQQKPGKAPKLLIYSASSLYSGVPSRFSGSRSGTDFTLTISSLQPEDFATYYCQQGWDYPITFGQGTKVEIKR
A. 170000
